The reader will find reported IC50 values listed item by item below.
# target-system: hNaV1.7 (Homo sapiens (Human))
# Sequence (Q15858 whole entry, looked up): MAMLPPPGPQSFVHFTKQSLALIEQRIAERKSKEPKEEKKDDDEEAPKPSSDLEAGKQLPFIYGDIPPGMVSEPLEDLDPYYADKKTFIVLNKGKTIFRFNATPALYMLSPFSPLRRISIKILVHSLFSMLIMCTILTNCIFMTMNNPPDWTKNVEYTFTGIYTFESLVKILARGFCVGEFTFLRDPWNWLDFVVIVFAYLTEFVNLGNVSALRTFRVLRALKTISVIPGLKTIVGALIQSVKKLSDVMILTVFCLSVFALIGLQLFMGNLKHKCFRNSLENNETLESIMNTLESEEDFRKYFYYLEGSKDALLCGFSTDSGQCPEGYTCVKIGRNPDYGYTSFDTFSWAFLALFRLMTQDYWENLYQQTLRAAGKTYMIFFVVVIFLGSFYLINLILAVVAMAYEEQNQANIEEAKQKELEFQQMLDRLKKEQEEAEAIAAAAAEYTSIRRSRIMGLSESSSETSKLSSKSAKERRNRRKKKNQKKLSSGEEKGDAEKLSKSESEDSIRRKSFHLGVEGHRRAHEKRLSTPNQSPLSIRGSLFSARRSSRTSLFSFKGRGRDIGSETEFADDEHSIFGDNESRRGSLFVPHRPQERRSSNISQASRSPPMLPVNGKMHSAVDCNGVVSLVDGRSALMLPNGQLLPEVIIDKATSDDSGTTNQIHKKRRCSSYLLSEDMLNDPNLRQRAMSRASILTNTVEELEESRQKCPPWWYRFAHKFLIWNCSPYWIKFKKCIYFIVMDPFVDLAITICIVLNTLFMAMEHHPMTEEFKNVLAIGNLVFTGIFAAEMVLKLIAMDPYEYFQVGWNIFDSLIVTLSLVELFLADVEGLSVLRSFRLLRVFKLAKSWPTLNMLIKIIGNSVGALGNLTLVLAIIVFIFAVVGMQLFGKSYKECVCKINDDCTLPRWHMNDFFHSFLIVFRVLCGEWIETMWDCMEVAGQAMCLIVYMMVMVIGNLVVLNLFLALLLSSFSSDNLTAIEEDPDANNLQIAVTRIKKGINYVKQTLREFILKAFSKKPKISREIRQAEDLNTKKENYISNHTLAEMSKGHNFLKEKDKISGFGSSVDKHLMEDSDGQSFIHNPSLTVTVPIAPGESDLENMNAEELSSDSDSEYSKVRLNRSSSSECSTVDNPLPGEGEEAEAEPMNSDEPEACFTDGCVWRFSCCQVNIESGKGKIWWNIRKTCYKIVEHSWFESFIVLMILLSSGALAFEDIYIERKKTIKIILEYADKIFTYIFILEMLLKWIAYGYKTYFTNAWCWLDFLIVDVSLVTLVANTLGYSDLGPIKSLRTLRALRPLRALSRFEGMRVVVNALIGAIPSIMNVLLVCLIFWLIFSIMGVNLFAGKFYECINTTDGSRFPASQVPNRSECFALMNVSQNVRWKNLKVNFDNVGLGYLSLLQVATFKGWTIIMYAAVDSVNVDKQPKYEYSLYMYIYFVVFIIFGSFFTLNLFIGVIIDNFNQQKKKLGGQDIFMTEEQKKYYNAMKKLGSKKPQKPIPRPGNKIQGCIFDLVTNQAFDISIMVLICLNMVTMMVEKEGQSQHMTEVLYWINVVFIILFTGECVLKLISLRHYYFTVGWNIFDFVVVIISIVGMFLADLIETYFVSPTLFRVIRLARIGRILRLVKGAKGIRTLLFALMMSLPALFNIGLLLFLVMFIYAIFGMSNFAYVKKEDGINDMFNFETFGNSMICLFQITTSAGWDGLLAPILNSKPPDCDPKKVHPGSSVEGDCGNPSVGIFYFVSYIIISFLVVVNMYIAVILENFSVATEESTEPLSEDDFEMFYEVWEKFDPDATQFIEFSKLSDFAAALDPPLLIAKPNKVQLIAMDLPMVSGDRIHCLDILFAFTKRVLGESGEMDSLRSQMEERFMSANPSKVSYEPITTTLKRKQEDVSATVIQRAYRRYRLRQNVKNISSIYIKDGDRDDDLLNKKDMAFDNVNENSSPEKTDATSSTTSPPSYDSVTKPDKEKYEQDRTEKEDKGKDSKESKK
# Sequence (Q07699 whole entry partner, looked up): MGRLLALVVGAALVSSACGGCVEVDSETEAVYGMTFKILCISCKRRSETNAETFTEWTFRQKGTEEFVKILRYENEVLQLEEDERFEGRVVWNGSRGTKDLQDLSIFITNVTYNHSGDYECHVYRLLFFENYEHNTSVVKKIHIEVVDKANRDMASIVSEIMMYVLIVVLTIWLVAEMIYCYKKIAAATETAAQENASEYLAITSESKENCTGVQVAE
# procedure-text: Competitive binding of tritiated compound to membranes from cells expressing hNav1.7 and the β1 subunit
# condition: 100 pM [3H]compound, 18 h, room temperature; read-out: NaV1.7 395 Membrane Binding IC50
parameter-measured: IC50 (nM)

INSERT INTO results (compound_structure_string, parameter_measured, quantity_unit, numeric_value) VALUES
  ('NS(=O)(=O)NC(=O)c1cc(Cl)c(COc2cnc(OCC(F)(F)C(F)F)c(Cl)c2)cc1F', 'IC50', 'nM', 460),
  ('CNS(=O)(=O)NC(=O)c1cc(Cl)c(Oc2ccc(OC(F)(F)F)c(Cl)c2)cc1F', 'IC50', 'nM', 145),
  ('CNS(=O)(=O)NC(=O)c1cc(Cl)c(COc2cnc(OC(C)C)c(Cl)c2)cc1F', 'IC50', 'nM', 140),
  ('NS(=O)(=O)NC(=O)c1cc(Cl)c(Oc2ccc(F)c(F)c2)cc1F', 'IC50', 'nM', 656),
  ('NS(=O)(=O)NC(=O)c1cc(Cl)c(Oc2ccc(Cl)c(C(F)(F)F)c2)cc1F', 'IC50', 'nM', 1130),
  ('CC(C)COc1ncc(Oc2cc(F)c(C(=O)NS(=O)(=O)c3cn(C)cn3)cc2Cl)cc1Cl', 'IC50', 'nM', 578),
  ('O=C(NS(=O)(=O)N1CCC1)c1cc(Cl)c(Oc2cnc(OCC(F)(F)F)c(Cl)c2)cc1F', 'IC50', 'nM', 16),
  ('CN(C)S(=O)(=O)NC(=O)c1cc(Cl)c(Oc2ccc3ccncc3c2)cc1F', 'IC50', 'nM', 20000);
